System Under Test: Large T antigen (Simian virus 40, UniProt P03070);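 note: Confirmatory-stage PubChem screen for compounds that inhibit SV40 T antigen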
Sequence (P03070 whole entry): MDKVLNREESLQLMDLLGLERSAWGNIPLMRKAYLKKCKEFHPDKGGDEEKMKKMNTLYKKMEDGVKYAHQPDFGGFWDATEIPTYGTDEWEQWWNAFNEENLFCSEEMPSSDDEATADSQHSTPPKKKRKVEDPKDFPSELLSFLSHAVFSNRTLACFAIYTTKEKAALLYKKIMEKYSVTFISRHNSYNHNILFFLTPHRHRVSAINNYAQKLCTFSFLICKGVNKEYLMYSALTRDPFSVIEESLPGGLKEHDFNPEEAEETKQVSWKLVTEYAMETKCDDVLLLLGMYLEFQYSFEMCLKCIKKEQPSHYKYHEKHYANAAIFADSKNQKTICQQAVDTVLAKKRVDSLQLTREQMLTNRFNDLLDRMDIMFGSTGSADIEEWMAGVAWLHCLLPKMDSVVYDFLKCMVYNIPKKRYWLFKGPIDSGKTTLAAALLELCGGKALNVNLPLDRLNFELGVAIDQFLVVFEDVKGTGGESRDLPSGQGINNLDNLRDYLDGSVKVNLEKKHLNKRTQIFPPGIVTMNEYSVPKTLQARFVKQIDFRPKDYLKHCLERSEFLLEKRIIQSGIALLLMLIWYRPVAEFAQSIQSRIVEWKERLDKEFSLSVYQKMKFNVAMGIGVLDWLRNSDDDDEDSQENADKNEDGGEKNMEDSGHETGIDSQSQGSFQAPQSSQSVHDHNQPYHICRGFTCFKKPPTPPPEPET
Assay type: functional, Betapolyomavirus macacae
Where a name gives a salt, the structure may show the parent alone. Calls of active or inactive are those of the source.
Quantity Name: IC50

O=C(CSc1nc2ccccc2o1)N/N=C/c1ccc(O)c(O)c1 :: 6.69 µM (active)
Cc1ccc(NC(=O)CN2C(=O)N/C(=C/c3cccn3-c3ccc(C(=O)O)cc3)C2=O)cc1 :: 24.7 µM (active)
O=C1C=C(O)c2c(O)cc(O)c(O)c2C1=O :: > 100 µM (active)
Oc1ccc(C2CNCCc3c2cc(O)c(O)c3Cl)cc1 (stereo not given) [FENOLDOPAM MESYLATE] :: > 100 µM (active)
Cc1ccc(S(=O)(=O)CCC(=O)Oc2ccc3c(C)cc(=O)oc3c2)cc1 :: 48.6 µM (active)
